FYI, the data here is from PubChem BioAssay.

test system: Wnt5a (protein binding on small-molecule microarray); experiment: Wnt5a binders on small-molecule microarray, primary screen, biophysical, 635/667 nm fluorescence (AID 1142); conditions: 635 nm fluorescence, higher = more signal;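 further: fluorescence read at 667 nm with signal to noise per printed feature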
Binary call on composite z-score: MET from 0.4 upward, NOT MET beneath that.

[Q] Entry CCCCCCCCCCC(O)C1C=CC2C(=O)N(Cc3ccccc3)C(=O)C2N1n1cnnc1 (stereo not given) : is its composite z-score no less than 0.4?
[A] MET

[Q] Entry `CCCCC=C[C@@H](NC(=O)c1cccs1)c1ccccc1` : is its composite z-score no less than 0.4?
[A] NOT MET

[Q] Entry `CC(C)(C)OC(=O)CC[C@@]1(C(=O)O)N=C(c2ccc(OCCCO)cc2)O[C@@H]1c1ccccc1N=[N+]=[N-]` : is its composite z-score no less than 0.4?
[A] MET

[Q] Entry `O=C/C=C/c1ccc2c(c1)OCO2` : is its composite z-score no less than 0.4?
[A] NOT MET

[Q] Entry `C=C(CCCC)/C(=C/C[C@H](OC(C)=O)c1ccc(CO)o1)c1cnc2ccccc2c1` : is its composite z-score no less than 0.4?
[A] MET
